test system: Shigella propagation in Caco2 cells; assay: Inhibition of Shigella propagation in Caco2 cells assay; type: cell-based, Shigella flexneri; conditions: INCACO2CELLS, Caco-2
Field: label. Allowed values: met (IC50 < 4 µM) or not met (IC50 >= 4 µM).

Examples from the recorded data:
{"Compound": "O=S(=O)(Nc1ccccc1C(F)(F)F)c1ccc(-c2ccc(F)cc2)s1 [DS1-32-05]", "Group": "met"}
{"Compound": "Cc1cccc(-n2cc(C(=O)c3cc(F)ccc3O)cc(C#N)c2=O)c1 [AN1-152-09]", "Group": "not met"}
{"Compound": "Cc1ccc(-n2cc(C(=O)c3cc(C)ccc3O)cc(C#N)c2=O)cc1 [AN1-152-05]", "Group": "met"}
{"Compound": "CCN(C(=O)Cn1c(-c2nonc2N)nc2ccccc21)c1ccccc1 [Compound S-134-02]", "Group": "not met"}
{"Compound": "N#Cc1cc(C(=O)c2ccccc2O)cn(-c2ccccn2)c1=O [AN1-152-01]", "Group": "met"}
{"Compound": "COc1ccc(CCNC(=O)c2nc(O)c3nnn(Cc4ccc(F)cc4)c3n2)cc1OC [Compound S-169-01]", "Group": "not met"}

Inquiry: Please state whether IC50 is below 4 µM for Cc1ccc(NC(=O)CC2SC(N3N=C(c4cccs4)CC3c3ccccc3)=NC2=O)cc1 (stereo not shown) [Compound S-10-03]
Reply text: met

Inquiry: Please state whether IC50 is below 4 µM for Cc1ncccc1Oc1ncc(Cl)cc1S(=O)(=O)Nc1cccc(Cl)c1 [DS-90-01]
Reply text: not met

Inquiry: Please state whether IC50 is below 4 µM for CN(C(=O)Cc1cccs1)C1(C(=O)NC2CCCCC2)CCCCC1 [Compound S-185-01]
Reply text: not met

Inquiry: Please state whether IC50 is below 4 µM for Cc1ccc(-n2cc(C(=O)c3cc(Cl)ccc3O)cc(C#N)c2=O)cc1 [AN1-152-04]
Reply text: not met

Inquiry: Please state whether IC50 is below 4 µM for COc1ccc(-n2nnnc2SC(C(=O)N(C)C)c2ccccc2)cc1 (stereo not shown) [Compound S-28-01]
Reply text: not met

Inquiry: Please state whether IC50 is below 4 µM for N#Cc1cc(C(=O)c2ccccc2O)cn(C2CCCC2)c1=O [AN1-152-03]
Reply text: met

Inquiry: Please state whether IC50 is below 4 µM for Cc1noc2ncn(Cc3nc(Cc4ccccc4F)no3)c(=O)c12 [Compound S-82-01]
Reply text: not met

Inquiry: Please state whether IC50 is below 4 µM for N#Cc1ccc(C(=O)Nc2nnc(-c3ccncc3)s2)cc1 [AN2-45-02]
Reply text: not met

Inquiry: Please state whether IC50 is below 4 µM for O=S(=O)(Nc1ccc(F)cc1C(F)(F)F)c1ccc(-c2cccs2)s1 [DS1-32-04]
Reply text: met

Inquiry: Please state whether IC50 is below 4 µM for O=C(CN1CCc2ccccc2C1)Nc1cnccc1C(=O)O [Compound S-136-01]
Reply text: met

Hey, just so you know, these numbers are from paper PMC10597453.
